B1: HMOX1 (parent)
chain: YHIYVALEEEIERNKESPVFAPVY

# Variants of: B1
# assay: protein stability index of a GFP-peptide fusion (GPS, HEK-293T) (PSI 1-6); higher = more stable;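 also: lentivirally expressed fusions sorted by FACS into six bins by GFP to DsRed ratio, PSI derived from sequencing read proportions per bin multiplied by bin number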
# reported conditions: c terminus: a fixed tail appended
variants and their reported protein stability index

chain: THIYVALEEEIERNKESPVFAPVY
protein stability index: 3.71
//
chain: YHIYVAREEEIERNKESPVFAPVY
protein stability index: 1.67
//
chain: YHIYVALEEEIERNKESPVCAPVY
protein stability index: 3.24
//
chain: YHIYVALEEEIERNKESPVFFPVY
protein stability index: 2.21
//
chain: YHIYVVLEEEIERNKESPVFAPVY
protein stability index: 3.22
//
chain: YHIYVALEEEIERNKESPVFAPSY
protein stability index: 1.85
//
chain: YHIYVALEEEIERNKESQVFAPVY
protein stability index: 1.61
//
chain: YHIYVALEEEHERNKESPVFAPVY
protein stability index: 2.01
//
chain: YHIYVASEEEIERNKESPVFAPVY
protein stability index: 1.56
//
chain: YHIYVAYEEEIERNKESPVFAPVY
protein stability index: 2.02
//
chain: YHIYVALEEEVERNKESPVFAPVY
protein stability index: 1.84
//
chain: YHIYVALEEEIERNKESYVFAPVY
protein stability index: 1.89
//
chain: YHIYVALEEEIERNKESPVFACVY
protein stability index: 1.54
//
chain: LHIYVALEEEIERNKESPVFAPVY
protein stability index: 1.64
//
chain: YHIYVALEQEIERNKESPVFAPVY
protein stability index: 1.75
//
chain: YHIYVANEEEIERNKESPVFAPVY
protein stability index: 1.88
